Each recorded value in this set is attributed to paper PMC10339607.

# target.under.test: EBV DNase (BGLF5) (Epstein-barr virus strain ag876, UniProt Q1HVE7)
# Construct: full-length wild-type, 470 amino acids; pET-15b His-tag; E. coli BL21(DE3) pLysS
# Sequence (Q1HVE7 whole entry): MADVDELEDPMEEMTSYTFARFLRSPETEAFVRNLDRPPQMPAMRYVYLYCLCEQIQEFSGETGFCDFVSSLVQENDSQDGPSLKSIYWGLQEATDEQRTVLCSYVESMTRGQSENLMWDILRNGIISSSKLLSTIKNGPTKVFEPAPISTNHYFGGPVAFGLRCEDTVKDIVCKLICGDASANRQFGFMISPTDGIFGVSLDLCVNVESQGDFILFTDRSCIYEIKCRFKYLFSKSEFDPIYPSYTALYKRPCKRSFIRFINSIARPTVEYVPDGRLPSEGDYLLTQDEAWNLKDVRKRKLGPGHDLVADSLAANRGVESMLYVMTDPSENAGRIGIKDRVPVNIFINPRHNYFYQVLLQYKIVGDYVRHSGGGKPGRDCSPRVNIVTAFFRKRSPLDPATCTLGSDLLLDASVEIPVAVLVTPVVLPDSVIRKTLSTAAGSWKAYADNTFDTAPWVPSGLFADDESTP
# assay.info: PicoGreen fluorescence nuclease activity assay
pIC50: −log10 of the molar value.
measure.name: pIC50

| compound | bound.operator | measurement |
| --- | --- | --- |
| C=CCSSCC=C [diallyl disulfide] | < | 4.00 |
| O=c1c(O)c(-c2ccc(O)cc2)oc2cc(O)cc(O)c12 | = | 4.16 |
| Cc1cc(O)c2c(c1)C(=O)c1cc(O)cc(O)c1C2=O | = | 4.51 |
| O=C(O[C@@H]1Cc2c(O)cc(O)cc2O[C@@H]1c1cc(O)c(O)c(O)c1)c1cc(O)c(O)c(O)c1 [epigallocatechin gallate] | = | 4.05 |
| C[S@@+]([O-])CCCCN=C=S | < | 4.00 |
